Tested on: Mycobacterium tuberculosis Erdman (autoluminescent)
Assay: GRinf, maximum normalised growth rate inhibition (three-drug combination) (unitless (-1 to 1)); higher = less effect (negative = killing)
Settings: in vitro model: butyrate; time point: terminal (~4-5 doublings, model-specific)
Returns one of Fulfilled or Not fulfilled; Fulfilled when GRinf is >= -0.04.

Field: example entries. Status: answers known.
compound	class assignment
NNC(=O)c1ccncc1 [isoniazid] + COc1c(N2C[C@@H]3CCCN[C@@H]3C2)c(F)cc2c(=O)c(C(=O)O)cn(C3CC3)c12 [moxifloxacin] + CO[C@H]1/C=C/O[C@@]2(C)Oc3c(C)c(O)c4c(O)c(c(/C=N/N5CCN(C)CC5)c(O)c4c3C2=O)NC(=O)/C(C)=C\C=C\[C@H](C)[C@H](O)[C@@H](C)[C@@H](O)[C@@H](C)[C@H](OC(C)=O)[C@@H]1C [rifampicin]	Fulfilled
CC(C)/N=c1\cc2n(-c3ccc(Cl)cc3)c3ccccc3nc-2cc1Nc1ccc(Cl)cc1 [clofazimine] + COc1c(N2C[C@@H]3CCCN[C@@H]3C2)c(F)cc2c(=O)c(C(=O)O)cn(C3CC3)c12 [moxifloxacin] + CO[C@H]1/C=C/O[C@@]2(C)Oc3c(C)c(O)c4c(O)c(c(/C=N/N5CCN(C6CCCC6)CC5)c(O)c4c3C2=O)NC(=O)/C(C)=C\C=C\[C@H](C)[C@H](O)[C@@H](C)[C@@H](O)[C@@H](C)[C@H](OC(C)=O)[C@@H]1C [rifapentine]	Not fulfilled
CC(=O)NC[C@H]1CN(c2ccc(N3CCOCC3)c(F)c2)C(=O)O1 [linezolid] + COc1c(N2C[C@@H]3CCCN[C@@H]3C2)c(F)cc2c(=O)c(C(=O)O)cn(C3CC3)c12 [moxifloxacin] + CO[C@H]1/C=C/O[C@@]2(C)Oc3c(C)c(O)c4c(O)c(c(/C=N/N5CCN(C)CC5)c(O)c4c3C2=O)NC(=O)/C(C)=C\C=C\[C@H](C)[C@H](O)[C@@H](C)[C@@H](O)[C@@H](C)[C@H](OC(C)=O)[C@@H]1C [rifampicin]	Fulfilled

Moving on to the next compound.
Test whether the compound CC(C)/N=c1\cc2n(-c3ccc(Cl)cc3)c3ccccc3nc-2cc1Nc1ccc(Cl)cc1 [clofazimine] + CC[C@@H](CO)NCCN[C@@H](CC)CO [ethambutol] + NC(=O)c1cnccn1 [pyrazinamide] records GRinf of -0.04 or higher.
Fulfilled

###

Test system: Mycobacterium tuberculosis Erdman (autoluminescent)
Assay: Einf, fitted maximum growth inhibition of three-drug combination (fraction); higher = stronger maximal inhibition
Conditions: in vitro model: dormancy (butyrate + nitrate, low O2); time point: terminal (~4-5 doublings, model-specific)
recorded endpoint: Einf
# respond with the number and nothing more

compound	endpoint result
CC[C@@H](CO)NCCN[C@@H](CC)CO [ethambutol] + COc1c(N2C[C@@H]3CCCN[C@@H]3C2)c(F)cc2c(=O)c(C(=O)O)cn(C3CC3)c12 [moxifloxacin] + CO[C@H]1/C=C/O[C@@]2(C)Oc3c(C)c(O)c4c(O)c(c(/C=N/N5CCN(C6CCCC6)CC5)c(O)c4c3C2=O)NC(=O)/C(C)=C\C=C\[C@H](C)[C@H](O)[C@@H](C)[C@@H](O)[C@@H](C)[C@H](OC(C)=O)[C@@H]1C [rifapentine]	0.993

So what does the record say about Einf for COc1nc2ccc(Br)cc2cc1[C@@H](c1ccccc1)[C@@](O)(CCN(C)C)c1cccc2ccccc12 [bedaquiline] + CC(C)/N=c1\cc2n(-c3ccc(Cl)cc3)c3ccccc3nc-2cc1Nc1ccc(Cl)cc1 [clofazimine] + COc1c(N2C[C@@H]3CCCN[C@@H]3C2)c(F)cc2c(=O)c(C(=O)O)cn(C3CC3)c12 [moxifloxacin] ?
0.997

So what does the record say about Einf for CC[C@@H](CO)NCCN[C@@H](CC)CO [ethambutol] + CC(=O)NC[C@H]1CN(c2ccc(N3CCOCC3)c(F)c2)C(=O)O1 [linezolid] + O=[N+]([O-])c1cn2c(n1)OC[C@@H](OCc1ccc(OC(F)(F)F)cc1)C2 [pretomanid] ?
0.981

So what does the record say about Einf for CC(=O)NC[C@H]1CN(c2ccc(N3CCOCC3)c(F)c2)C(=O)O1 [linezolid] + COc1c(N2C[C@@H]3CCCN[C@@H]3C2)c(F)cc2c(=O)c(C(=O)O)cn(C3CC3)c12 [moxifloxacin] + NC(=O)c1cnccn1 [pyrazinamide] ?
0.973

So what does the record say about Einf for CC[C@@H](CO)NCCN[C@@H](CC)CO [ethambutol] + COc1c(N2C[C@@H]3CCCN[C@@H]3C2)c(F)cc2c(=O)c(C(=O)O)cn(C3CC3)c12 [moxifloxacin] + O=[N+]([O-])c1cn2c(n1)OC[C@@H](OCc1ccc(OC(F)(F)F)cc1)C2 [pretomanid] ?
0.986

So what does the record say about Einf for CC(C)/N=c1\cc2n(-c3ccc(Cl)cc3)c3ccccc3nc-2cc1Nc1ccc(Cl)cc1 [clofazimine] + CC(=O)NC[C@H]1CN(c2ccc(N3CCOCC3)c(F)c2)C(=O)O1 [linezolid] + CO[C@H]1/C=C/O[C@@]2(C)Oc3c(C)c(O)c4c(O)c(c(/C=N/N5CCN(C6CCCC6)CC5)c(O)c4c3C2=O)NC(=O)/C(C)=C\C=C\[C@H](C)[C@H](O)[C@@H](C)[C@@H](O)[C@@H](C)[C@H](OC(C)=O)[C@@H]1C [rifapentine] ?
0.99

So what does the record say about Einf for CC(C)/N=c1\cc2n(-c3ccc(Cl)cc3)c3ccccc3nc-2cc1Nc1ccc(Cl)cc1 [clofazimine] + COc1c(N2C[C@@H]3CCCN[C@@H]3C2)c(F)cc2c(=O)c(C(=O)O)cn(C3CC3)c12 [moxifloxacin] + NC(=O)c1cnccn1 [pyrazinamide] ?
0.992

So what does the record say about Einf for NNC(=O)c1ccncc1 [isoniazid] + NC(=O)c1cnccn1 [pyrazinamide] + CO[C@H]1/C=C/O[C@@]2(C)Oc3c(C)c(O)c4c(O)c(c(/C=N/N5CCN(C6CCCC6)CC5)c(O)c4c3C2=O)NC(=O)/C(C)=C\C=C\[C@H](C)[C@H](O)[C@@H](C)[C@@H](O)[C@@H](C)[C@H](OC(C)=O)[C@@H]1C [rifapentine] ?
0.973

So what does the record say about Einf for COc1nc2ccc(Br)cc2cc1[C@@H](c1ccccc1)[C@@](O)(CCN(C)C)c1cccc2ccccc12 [bedaquiline] + CC(=O)NC[C@H]1CN(c2ccc(N3CCOCC3)c(F)c2)C(=O)O1 [linezolid] + CO[C@H]1/C=C/O[C@@]2(C)Oc3c(C)c(O)c4c(O)c(c(/C=N/N5CCN(C)CC5)c(O)c4c3C2=O)NC(=O)/C(C)=C\C=C\[C@H](C)[C@H](O)[C@@H](C)[C@@H](O)[C@@H](C)[C@H](OC(C)=O)[C@@H]1C [rifampicin] ?
0.982

So what does the record say about Einf for CC[C@@H](CO)NCCN[C@@H](CC)CO [ethambutol] + CC(=O)NC[C@H]1CN(c2ccc(N3CCOCC3)c(F)c2)C(=O)O1 [linezolid] + CO[C@H]1/C=C/O[C@@]2(C)Oc3c(C)c(O)c4c(O)c(c(/C=N/N5CCN(C6CCCC6)CC5)c(O)c4c3C2=O)NC(=O)/C(C)=C\C=C\[C@H](C)[C@H](O)[C@@H](C)[C@@H](O)[C@@H](C)[C@H](OC(C)=O)[C@@H]1C [rifapentine] ?
0.996

So what does the record say about Einf for COc1c(N2C[C@@H]3CCCN[C@@H]3C2)c(F)cc2c(=O)c(C(=O)O)cn(C3CC3)c12 [moxifloxacin] + O=[N+]([O-])c1cn2c(n1)OC[C@@H](OCc1ccc(OC(F)(F)F)cc1)C2 [pretomanid] + CO[C@H]1/C=C/O[C@@]2(C)Oc3c(C)c(O)c4c(O)c(c(/C=N/N5CCN(C)CC5)c(O)c4c3C2=O)NC(=O)/C(C)=C\C=C\[C@H](C)[C@H](O)[C@@H](C)[C@@H](O)[C@@H](C)[C@H](OC(C)=O)[C@@H]1C ?
0.965

So what does the record say about Einf for COc1nc2ccc(Br)cc2cc1[C@@H](c1ccccc1)[C@@](O)(CCN(C)C)c1cccc2ccccc12 [bedaquiline] + NNC(=O)c1ccncc1 [isoniazid] + NC(=O)c1cnccn1 [pyrazinamide] ?
0.992

So what does the record say about Einf for COc1nc2ccc(Br)cc2cc1[C@@H](c1ccccc1)[C@@](O)(CCN(C)C)c1cccc2ccccc12 [bedaquiline] + CC[C@@H](CO)NCCN[C@@H](CC)CO [ethambutol] + CO[C@H]1/C=C/O[C@@]2(C)Oc3c(C)c(O)c4c(O)c(c(/C=N/N5CCN(C6CCCC6)CC5)c(O)c4c3C2=O)NC(=O)/C(C)=C\C=C\[C@H](C)[C@H](O)[C@@H](C)[C@@H](O)[C@@H](C)[C@H](OC(C)=O)[C@@H]1C [rifapentine] ?
0.982
